# Study target: Pim-2 (Homo sapiens (Human), UniProt Q9P1W9)
# Sequence (Q9P1W9 whole entry): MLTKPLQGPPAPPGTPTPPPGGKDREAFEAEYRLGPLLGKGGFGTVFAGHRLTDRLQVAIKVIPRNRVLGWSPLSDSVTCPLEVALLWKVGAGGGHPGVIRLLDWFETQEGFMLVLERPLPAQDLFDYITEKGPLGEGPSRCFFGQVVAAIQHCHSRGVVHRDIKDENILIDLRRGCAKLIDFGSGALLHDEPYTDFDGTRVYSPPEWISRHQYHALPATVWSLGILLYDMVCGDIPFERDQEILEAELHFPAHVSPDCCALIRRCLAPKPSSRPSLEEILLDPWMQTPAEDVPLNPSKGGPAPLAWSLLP
pIC50: −log10 of the molar value.
Property measured: pIC50

Use the examples below as a reference point.
>  <Molecule>
CO[C@H]1CCN(c2cnc3c(C(=O)Nc4cnccc4[C@@H]4C[C@H](C)C[C@H](N)C4)ccc(F)c3c2)[C@H](C)C1 [Example 159]

>  <pIC50>
≥ 7.00

$$$$
>  <Molecule>
COC1(C)CN(c2cnc3c(C(=O)Nc4cnccc4[C@@H]4C[C@H](C)C[C@H](N)C4)ccc(F)c3c2)C1 [Example 118]

>  <pIC50>
≥ 7.00

$$$$
>  <Molecule>
CO[C@@H]1CCN(c2cnc3c(C(=O)Nc4cnccc4[C@@H]4C[C@H](C)C[C@H](N)C4)ccc(F)c3c2)[C@H](C)C1 [Example 161]

>  <pIC50>
≥ 7.00

$$$$

Tell me reported pIC50 for COC1CCN(c2cnc3c(C(=O)Nc4cnccc4[C@@H]4C[C@H](C)C[C@H](N)C4)ccc(F)c3c2)CC1 [Example 131] , tested with Pim-2 (Homo sapiens (Human), UniProt Q9P1W9). 6.00 to 7.00

Tell me reported pIC50 for C[C@@H]1C[C@H](N)C[C@H](c2ccncc2NC(=O)c2ccc(F)c3cc(N4CCN5C(=O)CCC5C4)cnc23)C1 (stereo partly drawn) [Example 84] , tested with Pim-2 (Homo sapiens (Human), UniProt Q9P1W9). 6.00 to 7.00

Tell me reported pIC50 for C[C@@H]1C[C@H](N)C[C@H](c2ccncc2NC(=O)c2ccc(F)c3cc(-c4cnn(C)c4)cnc23)C1 [Example 64] , tested with Pim-2 (Homo sapiens (Human), UniProt Q9P1W9). 6.00 to 7.00

Tell me reported pIC50 for CC(C)N1CCN(c2cnc3c(C(=O)Nc4cnccc4[C@@H]4C[C@H](C)C[C@H](N)C4)ccc(F)c3c2)CC1=O [Example 115] , tested with Pim-2 (Homo sapiens (Human), UniProt Q9P1W9). ≥ 7.00

Tell me reported pIC50 for COC[C@H]1CCCN1c1cnc2c(C(=O)Nc3cnccc3[C@@H]3C[C@H](C)C[C@H](N)C3)ccc(F)c2c1 [Example 47] , tested with Pim-2 (Homo sapiens (Human), UniProt Q9P1W9). ≥ 7.00

* * *

Reported values: IC50 for Pim-2 (Homo sapiens (Human), UniProt Q9P1W9), one per item.

Use the examples below as a reference point.
>  <Compound>
C[C@@H]1C[C@H](N)C[C@H](c2ccncc2NC(=O)c2ccc(F)c3cc(N4CCOc5cccc(F)c54)cnc23)C1

>  <IC50>
≤ 100 nM

$$$$
>  <Compound>
C[C@@H]1C[C@H](N)C[C@H](c2ccncc2NC(=O)c2ccc(F)c3cc(N(C)CC4CC4)cnc23)C1

>  <IC50>
100 to 1000 nM

$$$$
>  <Compound>
C[C@@H]1C[C@H](N)C[C@H](c2ccncc2NC(=O)c2ccc(F)c3cc(N(C)CC(F)(F)F)cnc23)C1

>  <IC50>
≤ 100 nM

$$$$

Param item = C[C@@H]1C[C@H](N)C[C@H](c2ccncc2NC(=O)c2ccc(F)c3cc(N4CCC[C@H]4C)nnc23)C1 ; retrieve measured IC50. ≤ 100 nM

Param item = CO[C@@H]1C[C@H](C)N(c2cnc3c(C(=O)Nc4cnccc4[C@@H]4C[C@H](C)C[C@H](N)C4)ccc(F)c3c2)C1 ; retrieve measured IC50. ≤ 100 nM

Param item = C[C@@H]1C[C@H](N)C[C@H](c2ccncc2NC(=O)c2ccc(F)c3cc(N4C[C@H]5C[C@@H]4CO5)cnc23)C1 ; retrieve measured IC50. ≤ 100 nM

Param item = C[C@@H]1C[C@H](N)C[C@H](c2ccncc2NC(=O)c2ccc(F)c3cc(N(C)C4CCOC4)cnc23)C1 (stereo partly drawn) ; retrieve measured IC50. 100 to 1000 nM

Param item = C[C@@H]1C[C@H](N)C[C@H](c2ccncc2NC(=O)c2ccc(F)c3cc(-c4ccc(C(F)(F)F)nc4)cnc23)C1 ; retrieve measured IC50. 1000 to 10000 nM

Param item = CO[C@@H]1CCN(c2cnc3c(C(=O)Nc4cnccc4[C@@H]4C[C@H](C)C[C@H](N)C4)ccc(F)c3c2)[C@@H](C)C1 ; retrieve measured IC50. ≤ 100 nM
